Below: a set of entries, each annotated with reported GI50.
Test system: SK-MEL-2
Test Details: NCI tumour cell line growth inhibition, 48 h
The source made the active and inactive calls. Cut-off read from the data, not from the text of the source: active = GI50 up to about 1.1 µM and inactive = higher.

Compound: O=C(N/C(=C\c1cccc([N+](=O)[O-])c1)c1nc2c(O)nc(S)nc2[nH]1)c1ccccc1
GI50: > 100 µM (inactive)
//
Compound: CO[C@@H]1C=C[C@@]23c4cc5c(cc4CN(C[C@@H]2O)[C@H]3C1)OCO5 [(+)-HAEMANTHAMINE]
GI50: 9.16 µM (inactive)
//
Compound: CCOc1ccccc1/N=N/C1C(=O)N(C(=O)CC(=O)Nc2ccccc2OC)N=C1C (stereo not given)
GI50: 55.7 µM (inactive)
//
Compound: CSCCC(NC(c1ccccc1)c1ccccc1)[PH](=O)O (stereo not given)
GI50: > 100 µM (inactive)
//
Compound: COc1ccc(C)cc1NC(=S)N/N=C/c1ccc(SC)cc1
GI50: 55.6 µM (inactive)

###

Tested on: IGROV-1
Test Details: NCI tumour cell line growth inhibition, 48 h
Active and inactive are the calls of the source. Rule as the data show it: active = GI50 up to about 1.1 µM and inactive = higher.
Possible outcomes: active, inactive

Molecule: O=C(N/C(=C\c1cccc([N+](=O)[O-])c1)c1nc2c(O)nc(S)nc2[nH]1)c1ccccc1
Group: inactive
--
Molecule: C=CCC1C(O[Si](C)(C)C(C)(C)C)C(CO[Si](C)(C)C(C)(C)C)OC1n1ccc(=O)[nH]c1=O (configuration not stated)
Group: inactive
--
Molecule: CCc1c(OC(C)=O)c2c(NC3OCC(OC(C)=O)C(OC(C)=O)C3OC(C)=O)nc(SC)nc2oc1=O (configuration not stated)
Group: inactive
--
Molecule: CC1(c2cccc(C3CC4(CCC3=O)OCCCCO4)c2)OCCO1 (configuration not stated)
Group: inactive
--
Molecule: CC(SC1=CC(=O)c2c(Cl)ccc(O)c2C1=O)C(=O)O (configuration not stated)
Group: inactive
--
Molecule: COc1ccccc1N1CCN(CCCNC(=O)c2cc(Cl)c(N)c(Cl)c2)CC1
Group: inactive
--
Molecule: COc1cc(C(CN)N(C)C)cc(OC)c1OC (configuration not stated)
Group: inactive
--
Molecule: C=C1CN2CCc3c([nH]c4ccccc34)C2CC1CC(=O)N(C)C (configuration not stated)
Group: inactive
--
Molecule: CC1(C)CCCC2(C)C3C(O)CC2(C)C(O)C31 (configuration not stated)
Group: inactive
--
Molecule: COC(OC)C1OCC(n2cc(F)c(=O)[nH]c2=O)C1O (configuration not stated)
Group: inactive
--
Molecule: Cn1ccnc1CC(C)(O)c1ccccc1 (configuration not stated)
Group: inactive
--
Molecule: COC(=O)C1=COC(C)C2C[n+]3ccc4c([nH]c5ccccc54)c3CC12 (configuration not stated)
Group: inactive
--
Molecule: CN(C)c1ccc(C(=O)NCCCCCCC(=O)NO)cc1
Group: active
--
Molecule: OCCN1CN(c2nc(N3CN(CCO)C3)nc(N3CN(CCO)C3)n2)C1
Group: inactive
--
Molecule: CCOC(=O)C1([Se]c2ccccc2)CCCC1=O (configuration not stated)
Group: inactive
--
Molecule: CC(C)(C)[Si](C)(C)O/N=C\c1cccc(O[Si](C)(C)C(C)(C)C)c1
Group: inactive
--
Molecule: COC(=O)C1CCCC2(C1)OCCO2 (configuration not stated)
Group: inactive
--
Molecule: COc1ccc(/N=C2\C(=S)N(c3ccc(OC)cc3)/C(=N/S(=O)(=O)c3ccccc3)N2c2ccccc2)cc1
Group: inactive
--
Molecule: CCOc1ccc(-n2c(=O)n3c(Nc4ccc(Cl)cc4)nc4c(c(=O)n(C)c(=O)n4C)n3c2=O)cc1
Group: inactive
--
Molecule: NCCCCC(N)C(=O)NCCNc1ccc(NCCNC(=O)C(N)CCCCN)c2c1C(=O)c1ccccc1C2=O (configuration not stated)
Group: inactive
--
Molecule: CC(=O)OC[C@H]1CN(OC(C)=O)C[C@@H](n2cc(C)c(=O)[nH]c2=O)O1
Group: inactive
--
Molecule: N=S(=O)(c1ccccc1)c1ccccc1
Group: inactive
--
Molecule: CN/C(N)=N/N=C1/C(=O)Nc2ccccc21
Group: inactive
--
Molecule: CCN(CC)c1c(-c2c(OC(C)C)c(=O)c2=O)c(=O)n2ccsc2c1OC(C)=O
Group: inactive
--
Molecule: COc1ccc(/C=C2\CCC(CCN(C)C)(C3=CCCC3)C2=O)cc1 (configuration not stated)
Group: inactive
--
Molecule: NC(CCOCCP(=O)(O)O)C(=O)O (configuration not stated)
Group: inactive
--
Molecule: O=C(O)[C@@H]1CCS(=O)(=O)N1
Group: inactive
--
Molecule: CCOC(=O)c1cn2c(ccc3sc4ccccc4c(=O)c32)n1
Group: inactive
--
Molecule: COc1cc2c[n+](C)c3c4cc(OC)c(OC(C)C)cc4ccc3c2cc1OC
Group: inactive
--
Molecule: CN(CC1(CO)CCC1)c1cc(Cl)nc(N)n1
Group: inactive
--
Molecule: CCN1C2=NCCN2S(=O)(=O)c2ccccc21
Group: inactive
--
Molecule: CN(CCCN(C)Cc1ccc(Cl)c(Cl)c1)CCN1CCCC1
Group: inactive
--
Molecule: O=C1COc2ccc([N+](=O)[O-])cc2C(=O)C1
Group: inactive
--
Molecule: COc1ccc(CCN2CCN(CCc3ccc(OC)cc3)CC2)cc1
Group: inactive
--
Molecule: O=C1C(=Cc2c(O)cc(O)cc2O)C(=O)c2ccccc21
Group: inactive
--
Molecule: CC1=NN(C(=O)CC(=O)Nc2ccccc2F)C(=O)C1/N=N/c1ccccc1[N+](=O)[O-] (configuration not stated)
Group: inactive
--
Molecule: COc1cc2c(cc1OC)C(CCN)=NCC2
Group: inactive

###

Tested on: NCI-H460
Test Details: NCI tumour cell line growth inhibition, 48 h
Activity calls are given as the source filed them. Cut-off read from the data, not from the text of the source: active = GI50 up to about 1.1 µM and inactive = higher.
Possible outcomes: active, inactive

Compound: O=C1c2ccccc2C2(O)N(c3ccccc3)C(=S)N(c3ccccc3)C12O (stereo unspecified)
Group: inactive
--
Compound: O=c1c2ccccc2n2nnc3ccc(NCCCNCCNCCCNc4ccc5nnn6c7ccccc7c(=O)c4c56)c1c32
Group: active
--
Compound: O=S(=O)(O)c1ccc(-c2c3nc(c(-c4ccc(S(=O)(=O)O)cc4)c4ccc([nH]4)c(-c4ccc(S(=O)(=O)O)cc4)c4nc(c(-c5ccc(S(=O)(=O)O)cc5)c5ccc2[nH]5)C=C4)C=C3)cc1
Group: inactive
--
Compound: Nc1nc(=O)[nH][nH]1
Group: inactive
--
Compound: O=C(CC(=O)N(C(=O)c1ccccc1)c1ccc(Cl)cc1)N/N=C\c1ccccc1O
Group: inactive
--
Compound: O=C(O)C1C(C(=O)O)C(C(=O)O)C1C(=O)O (stereo unspecified)
Group: inactive
--
Compound: N#C/C(=C\c1cc(O)c(O)c(O)c1)C(N)=O
Group: inactive
--
Compound: C[Si](C)(OCCS(=O)(=O)O)C1(Cc2cccc3ccccc23)S(=O)(=O)OCCOS1(=O)=O
Group: inactive
--
Compound: CCCCCCCCCCCCCCCC(=O)OC(COC(C)=O)CO[PH](=O)O (stereo unspecified)
Group: inactive
--
Compound: O=C1C=C/C(=N/c2ccccc2)c2ccccc21
Group: inactive
--
Compound: Oc1ccccc1C(c1cc2c(cc1O)OCO2)N1CCOCC1 (stereo unspecified)
Group: inactive
--
Compound: CN(/N=C\c1ccc2ccccc2c1)C1=NCCCCN1
Group: inactive
--
Compound: COc1cc2c(c(O)c1OC)C(=O)[C@@H]1CCC(=O)N1C2
Group: inactive
--
Compound: COc1cc(C)c(/C=C2/N=C(c3ccccc3)OC2=O)c([N+](=O)[O-])c1OC
Group: inactive
--
Compound: [O-][S+]1CC[S+]([O-])CC[S+]([O-])CC1 (stereo unspecified)
Group: inactive
--
Compound: C=C(C)C(=O)N1c2ccc(OC)cc2CC1C(=O)OCC (stereo unspecified)
Group: inactive
--
Compound: O=C1CCCCCCCCCCC(=O)C2CCOCCOCCOCCC1Cc1cccc(n1)C2
Group: inactive
--
Compound: CCOC(=O)Nc1sc2c(c1C#N)CCCC2
Group: inactive
--
Compound: COC(=O)C1=COC(C)C2C[n+]3ccc4c([nH]c5ccccc54)c3CC12 (stereo unspecified)
Group: inactive
--
Compound: CN(CCCCCl)P(=O)(OCc1ccc([N+](=O)[O-])o1)OCC1OC(n2ccc(N)nc2=O)C(O)C1O (stereo unspecified)
Group: inactive
--
Compound: O=C(c1ccccc1)N1C(=O)N(c2ccccc2)C(=N/c2ccccc2)/C1=N\c1ccccc1
Group: inactive

###

System: SNB-75
Test Details: NCI tumour cell line growth inhibition, 48 h
Counter-ions that a name gives are not always drawn. Active and inactive are the calls of the source. Cut-off read from the data, not from the text of the source: active = GI50 up to about 1.1 µM and inactive = higher.

Compound: CC(=O)N(O)CCCCCNC(=O)CCC(=O)N(O)CCCCCNC(=O)CCC(=O)N(O)CCCCCN [DEFEROXAMINE HYDROCHLORIDE]
GI50: > 100 µM (inactive)
--
Compound: COc1ccc(OC)c2cc(C3(C)SCCCS3)ccc12
GI50: 56.6 µM (inactive)
--
Compound: O=C(CC1C(=O)Nc2ccccc2S1(=O)=O)Nc1ccc(Cl)cc1 (stereo not drawn)
GI50: 16.9 µM (inactive)
--
Compound: CNC(=O)c1nc[nH]c1/N=N/N(C)N
GI50: 80.9 µM (inactive)
--
Compound: [O-][n+]1nc(N2CCOCC2)nc2ccccc21
GI50: > 100 µM (inactive)
--
Compound: Cc1c2cccc-2c(OCCO)cc2c3ccccc3n(C)c12
GI50: 5.28 µM (inactive)
--
Compound: CC(=O)c1ccc(/N=N/c2ccc3nonc3c2N)cc1
GI50: 94.4 µM (inactive)
--
Compound: S=C(S)NCC1CCC(CNC(=S)S)CC1 (stereo not drawn)
GI50: 34.9 µM (inactive)
--
Compound: c1ccc(CNCCCNCCCCNCCCNCc2ccccc2)cc1
GI50: 8.91 µM (inactive)
--
Compound: Cc1ccc(S(=O)(=O)N/N=C(/CC(=O)c2c(C)[n+]([O-])c3ccccc3[n+]2[O-])C(=O)Nc2ccc(C)c(C)c2)cc1
GI50: > 100 µM (inactive)
--
Compound: O=C1/C(=C/c2ccccc2)CCCC/C1=C\c1ccccc1
GI50: 66.7 µM (inactive)
--
Compound: O=C(O)CC12C3C4C5C3C1C5C42 (stereo not drawn)
GI50: 76.2 µM (inactive)
--
Compound: Cc1ccc(Nc2nc3[nH]ccc3c(=O)[nH]2)cc1
GI50: 2.24 µM (inactive)
--
Compound: NNc1ccccc1Cl
GI50: > 100 µM (inactive)
--
Compound: Cc1c(NC(=O)CCCl)c(=O)oc2c(C)c3occc(=O)c3cc12
GI50: 42.2 µM (inactive)
--
Compound: Brc1c2nc3ccccc3nc2n2ccc3ccccc3c12
GI50: > 100 µM (inactive)
--
Compound: COc1cc2nc(-c3cccs3)nc(Nc3cccc([N+](=O)[O-])c3)c2cc1OC
GI50: 29 µM (inactive)
--
Compound: O=C1OC(c2ccccc2)=N/C1=C/N1CCCC1C(=O)O (stereo not drawn)
GI50: > 100 µM (inactive)
--
Compound: COc1ccc(C2C(=O)c3c(OC)cc(OC)cc3OC2c2cccnc2)cc1 (stereo not drawn)
GI50: 27.4 µM (inactive)
--
Compound: C[n+]1c2ccccc2c(CNC(CCC(N)=O)C(=O)O)c2ccccc21 (stereo not drawn)
GI50: 5.22 µM (inactive)
--
Compound: O=C(O)C1(C(=O)O)CC1(C(=O)O)C(=O)O
GI50: > 100 µM (inactive)
--
Compound: CC1C[C@]2(C)C(NCCN)=Nc3ccccc3[C@@H]2N(C)c2ccccc21 (stereo partly drawn)
GI50: 3.45 µM (inactive)
--
Compound: COC(=O)/C=C\C(C#N)(C#N)/N=C/c1ccc(OC)cc1
GI50: 16.4 µM (inactive)
